molecular target: human CD33 G114A (human, UniProt P20138 18-364); assay: flow cytometry on HEK293-T, alanine scan
Sequence (P20138 18-364 G114A limits assumed): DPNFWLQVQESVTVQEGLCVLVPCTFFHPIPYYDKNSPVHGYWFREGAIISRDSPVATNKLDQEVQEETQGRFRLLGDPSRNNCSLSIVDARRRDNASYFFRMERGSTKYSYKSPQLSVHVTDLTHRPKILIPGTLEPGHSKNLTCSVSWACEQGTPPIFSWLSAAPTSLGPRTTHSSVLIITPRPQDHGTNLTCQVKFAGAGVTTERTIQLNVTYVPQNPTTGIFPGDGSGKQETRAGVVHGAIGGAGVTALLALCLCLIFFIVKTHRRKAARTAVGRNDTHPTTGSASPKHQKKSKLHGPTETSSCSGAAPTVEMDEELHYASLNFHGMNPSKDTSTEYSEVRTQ
Measured Property: Mean % WT Binding (% WT binding)
Give the value in % WT binding but do not write % WT binding after it.

For Refmab #2 (antibody, V domains shown, The alanine scan used IgG or Fab) VH: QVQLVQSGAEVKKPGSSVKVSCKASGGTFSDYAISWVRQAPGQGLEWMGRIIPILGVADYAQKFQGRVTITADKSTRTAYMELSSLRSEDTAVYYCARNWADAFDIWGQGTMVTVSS VL: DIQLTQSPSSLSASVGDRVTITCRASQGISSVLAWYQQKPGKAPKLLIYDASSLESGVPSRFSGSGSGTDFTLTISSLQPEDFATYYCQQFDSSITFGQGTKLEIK the binder record lists Mean % WT Binding as 116
